# System: L1210 leukemia ip in BDF1 mice, survival T/C
# EXPERIMENTAL_DETAILS: NCI In Vivo Anticancer Drug Screen. Data for tumor model L1210 Leukemia (intraperitoneal) in B6D2F1 (BDF1) mice
# TEST_SETTINGS: endpoint: mean survival time; dose: 200.0 mg/kg/injection; schedule: Q04DX003 (ip); vehicle: acetone; higher = longer survival
Inconclusive results and toxic doses are left out.
MEASURED_PROPERTY: T/C

Use the examples below as a reference point.
1) COc1cc(NC(C)=O)ccn1; 100 % of control
2) CC1(C)CC2(CC3(C1)SCCS3)SCCS2; 96 % of control
3) COc1cccc(C2CCCCCC2OS(=O)(=O)c2ccc(C)cc2)c1OC (configuration not stated); 98 % of control
4) O=S(=O)(c1ccccc1)N1CCOC1=S; 101 % of control
5) OC(c1ccccc1)(c1ccccc1)C(c1ccccc1)c1ccccc1; 97 % of control
6) CC12CCCC(O)(CC(=O)C1)C2 (configuration not stated); 101 % of control

Form field - read-out: T/C; system: L1210 leukemia ip in BDF1 mice, survival T/C; submitted item: CC(C)c1cc2c(cc1O)C1(C)CCCC(C)(C(=O)O)C1CC2 (configuration not stated)
89 % of control

Source: PubChem BioAssay AID248
